Target: GSPT1 (Homo sapiens, UniProt P15170+Q96SW2)
Sequence (P15170 whole entry): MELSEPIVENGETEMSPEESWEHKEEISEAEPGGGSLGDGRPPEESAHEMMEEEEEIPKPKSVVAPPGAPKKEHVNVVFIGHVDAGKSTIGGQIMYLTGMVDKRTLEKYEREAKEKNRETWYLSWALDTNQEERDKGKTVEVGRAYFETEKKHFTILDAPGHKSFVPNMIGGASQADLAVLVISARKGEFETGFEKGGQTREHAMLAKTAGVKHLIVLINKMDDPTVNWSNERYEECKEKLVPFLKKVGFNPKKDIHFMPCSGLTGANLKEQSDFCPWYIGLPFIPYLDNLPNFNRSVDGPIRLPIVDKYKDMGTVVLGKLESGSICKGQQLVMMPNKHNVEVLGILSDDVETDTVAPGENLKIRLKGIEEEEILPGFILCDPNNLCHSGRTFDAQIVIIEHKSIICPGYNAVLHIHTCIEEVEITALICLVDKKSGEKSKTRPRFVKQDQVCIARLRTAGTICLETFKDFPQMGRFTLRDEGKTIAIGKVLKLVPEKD
Sequence (Q96SW2 whole entry): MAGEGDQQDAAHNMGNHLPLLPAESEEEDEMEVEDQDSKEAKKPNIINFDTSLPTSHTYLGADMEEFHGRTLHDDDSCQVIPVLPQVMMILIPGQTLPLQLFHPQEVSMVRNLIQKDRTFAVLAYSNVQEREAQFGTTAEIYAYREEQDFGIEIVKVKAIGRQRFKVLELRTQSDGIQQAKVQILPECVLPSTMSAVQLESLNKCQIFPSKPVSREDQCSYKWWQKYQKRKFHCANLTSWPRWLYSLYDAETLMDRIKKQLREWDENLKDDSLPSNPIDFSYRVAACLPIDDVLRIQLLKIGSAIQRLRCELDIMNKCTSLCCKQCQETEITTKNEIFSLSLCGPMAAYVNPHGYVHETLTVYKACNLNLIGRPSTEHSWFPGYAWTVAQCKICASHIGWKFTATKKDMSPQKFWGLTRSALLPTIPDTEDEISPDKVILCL
Sequence (Q16531 whole entry partner): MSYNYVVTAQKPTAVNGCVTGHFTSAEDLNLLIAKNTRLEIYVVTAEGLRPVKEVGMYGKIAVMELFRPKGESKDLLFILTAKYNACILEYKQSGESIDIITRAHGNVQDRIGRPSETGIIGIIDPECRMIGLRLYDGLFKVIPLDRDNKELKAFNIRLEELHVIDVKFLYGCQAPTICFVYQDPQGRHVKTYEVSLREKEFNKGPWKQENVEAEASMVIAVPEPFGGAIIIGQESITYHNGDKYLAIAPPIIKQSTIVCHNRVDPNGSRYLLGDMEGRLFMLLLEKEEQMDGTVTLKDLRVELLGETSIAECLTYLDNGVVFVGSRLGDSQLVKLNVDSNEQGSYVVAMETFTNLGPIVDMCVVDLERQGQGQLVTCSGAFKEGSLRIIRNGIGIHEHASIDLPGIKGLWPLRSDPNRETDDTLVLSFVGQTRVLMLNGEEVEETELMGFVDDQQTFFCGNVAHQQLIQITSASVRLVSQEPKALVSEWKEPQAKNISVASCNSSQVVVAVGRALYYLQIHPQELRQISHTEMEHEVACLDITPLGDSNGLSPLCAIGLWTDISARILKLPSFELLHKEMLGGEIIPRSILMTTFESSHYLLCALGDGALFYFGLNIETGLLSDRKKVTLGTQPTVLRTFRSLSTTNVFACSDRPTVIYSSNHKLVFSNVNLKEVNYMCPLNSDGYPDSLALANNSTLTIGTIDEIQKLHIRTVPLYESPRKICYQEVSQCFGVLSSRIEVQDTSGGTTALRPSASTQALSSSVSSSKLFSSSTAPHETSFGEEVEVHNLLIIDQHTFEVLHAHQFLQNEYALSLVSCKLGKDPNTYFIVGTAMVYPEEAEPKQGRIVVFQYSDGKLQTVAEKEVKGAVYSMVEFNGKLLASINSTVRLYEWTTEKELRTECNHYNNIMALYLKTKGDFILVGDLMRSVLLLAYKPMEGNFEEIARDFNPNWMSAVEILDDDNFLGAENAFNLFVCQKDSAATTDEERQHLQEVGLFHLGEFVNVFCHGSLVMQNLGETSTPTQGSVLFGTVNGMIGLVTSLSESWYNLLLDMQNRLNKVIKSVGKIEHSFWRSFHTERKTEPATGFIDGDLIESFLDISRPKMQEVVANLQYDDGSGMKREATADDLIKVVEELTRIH
Experiment: HiBiT degradation assay, GSPT1, Procedure A
Format: cell-based
Design: HiBit-GSPT1 KI HEK293(LgBit) Cells; host or cells: HEK293(LgBit) knock-in cells
Conditions: six hours incubation
value.type: DC50

// known answers, use as guide
{"columns": ["compound", "endpoint.result"],
 "data": [
  ["Cc1n[nH]c(-c2ccccc2)c1-c1ccc2c(c1)CN(C1CCC(=O)NC1=O)C2=O (centres unmarked)", "≥ 25 nM"],
  ["Cn1ncc(-c2ccc3c(c2)CN(C2CCC(=O)NC2=O)C3=O)c1-c1ccc(-c2cccnc2)cc1 (centres unmarked)", "≥ 25 nM"],
  ["COCc1ccc(-c2c(-c3ccc4c(c3)CN(C3CCC(=O)NC3=O)C4=O)ncn2C)cc1 (centres unmarked)", "< 25 nM"],
  ["Cn1ncc(-c2ccc3c(c2)CN(C2CCC(=O)NC2=O)C3=O)c1-c1ccc(NC(=O)c2ccccc2)cc1 (centres unmarked)", "≥ 25 nM"],
  ["Cn1ncc(-c2ccc3c(c2)CN(C2CCC(=O)NC2=O)C3=O)c1-c1cccc(N2CCCCC2)c1 (centres unmarked)", "≥ 25 nM"],
  ["Cn1cnc(-c2ccc3c(c2)CN(C2CCC(=O)NC2=O)C3=O)c1-c1ccccc1F (centres unmarked)", "< 25 nM"],
  ["O=C1CCC(N2Cc3cc(-c4nc(-c5ccccc5)co4)ccc3C2=O)C(=O)N1 (centres unmarked)", "≥ 25 nM"],
  ["Cn1ncc(-c2ccc3c(c2)CN(C2CCC(=O)NC2=O)C3=O)c1-c1cc(Cl)ccc1F (centres unmarked)", "≥ 25 nM"],
  ["Cn1ncc(-c2ccc3c(c2)CN(C2CCC(=O)NC2=O)C3=O)c1-c1cc(F)ccc1Cl (centres unmarked)", "≥ 25 nM"],
  ["O=C1CCC(N2Cc3cc(-c4cnn(-c5ccccc5)c4)ccc3C2=O)C(=O)N1 (centres unmarked)", "≥ 25 nM"]
]}

Enter reported DC50 observed with GSPT1 (Homo sapiens, UniProt P15170+Q96SW2) for Cc1ccc(F)c(-c2c(-c3ccc4c(c3)CN(C3CCC(=O)NC3=O)C4=O)cnn2C)c1 (centres unmarked) ≥ 25 nM

And for Cn1ncc(-c2ccc3c(c2)CN(C2CCC(=O)NC2=O)C3=O)c1-c1cncc(N)c1 (centres unmarked) ? ≥ 25 nM

###

Biological target: CK1α (Homo sapiens, UniProt P48729+Q96SW2)
Construct: CSNK1A1-HiBit KI HEK293(LgBit) Cells; host or cells: HEK293(LgBit) knock-in cells
Sequence (P48729 whole entry): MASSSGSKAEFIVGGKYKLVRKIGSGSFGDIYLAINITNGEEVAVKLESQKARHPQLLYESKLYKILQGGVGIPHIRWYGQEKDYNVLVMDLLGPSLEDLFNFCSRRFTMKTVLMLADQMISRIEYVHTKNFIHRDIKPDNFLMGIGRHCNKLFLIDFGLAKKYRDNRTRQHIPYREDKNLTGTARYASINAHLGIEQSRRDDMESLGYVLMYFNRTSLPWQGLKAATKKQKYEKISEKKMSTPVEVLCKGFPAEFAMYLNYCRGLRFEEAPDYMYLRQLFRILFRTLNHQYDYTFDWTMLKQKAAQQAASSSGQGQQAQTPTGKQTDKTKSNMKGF
Sequence (Q96SW2 whole entry): as the sequence (Q96SW2 whole entry) above
Sequence (Q16531 whole entry partner): as the sequence (Q16531 whole entry partner) above
Assay: HiBiT degradation assay, CK1α, Procedure A
Type: cell-based
Conditions: six hours
value.type: CK1α Ymin

{"columns": ["compound", "value.type", "endpoint.result"],
 "data": [
  ["O=C1CCC(N2Cc3cc(-c4cn(C5CC5)c(-c5ccccc5)n4)ccc3C2=O)C(=O)N1 (stereo not shown)", "CK1α Ymin", "C (C = 0-10% remaining)"],
  ["Cc1nc2ccc(-c3c(-c4ccc5c(c4)CN(C4CCC(=O)NC4=O)C5=O)cnn3C)cc2[nH]1 (stereo not shown)", "CK1α Ymin", "C (C = 0-10% remaining)"]
]}

###

Biological target: CK1α (Homo sapiens, UniProt P48729+Q96SW2)
Construct: CSNK1A1-HiBit KI HEK293(LgBit) Cells; host or cells: HEK293(LgBit) knock-in cells
Assay: HiBiT degradation assay, CK1α, Procedure A
Assay type: cell-based
Conditions: six hours

{"columns": ["molecule", "CK1α Ymin"],
 "data": [
  ["Cn1cnc(-c2ccc3c(c2)CN(C2CCC(=O)NC2=O)C3=O)c1-c1ccc2sccc2c1 (centres unmarked)", "C (C = 0-10% remaining)"],
  ["COc1ccc(-c2nc(-c3ccc4c(c3)CN(C3CCC(=O)NC3=O)C4=O)cn2C)cc1C (centres unmarked)", "C (C = 0-10% remaining)"],
  ["CC(C)c1cn(-c2ccccc2)c(-c2ccc3c(c2)CN(C2CCC(=O)NC2=O)C3=O)n1 (centres unmarked)", "C (C = 0-10% remaining)"]
]}
